What AC50 was measured for each of the following?
- tested_on: human PAH with the R408W mutation (A375 R408W cells) (Homo sapiens, UniProt P00439, R408W)
- Construct: expressed in transfected cells
- Sequence (P00439 whole entry R408W): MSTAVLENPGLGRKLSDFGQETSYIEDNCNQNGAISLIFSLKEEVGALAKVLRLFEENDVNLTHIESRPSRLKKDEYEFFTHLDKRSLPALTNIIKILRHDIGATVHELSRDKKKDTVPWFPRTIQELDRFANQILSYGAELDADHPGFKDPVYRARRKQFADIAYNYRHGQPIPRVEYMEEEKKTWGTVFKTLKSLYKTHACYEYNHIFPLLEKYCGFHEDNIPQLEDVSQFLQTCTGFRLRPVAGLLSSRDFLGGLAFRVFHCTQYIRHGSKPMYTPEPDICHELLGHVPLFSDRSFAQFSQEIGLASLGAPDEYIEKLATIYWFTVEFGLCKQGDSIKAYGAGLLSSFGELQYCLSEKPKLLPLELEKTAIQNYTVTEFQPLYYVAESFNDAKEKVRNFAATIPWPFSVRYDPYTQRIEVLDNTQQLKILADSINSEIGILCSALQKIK
- protocol_notes: Cell Based Phenylalanine Flux Assay
- measurement_parameters: A375 R408W cells; 24 hrs with compound, then 20 μM sepiapterin and 800 μM 13C9,15N-Phenylalanine for 4 hours; 13C-Tyrosine by LC-MS; average where tested multiple times

Missing value: AC50, human PAH with the R408W mutation (A375 R408W cells) (Homo sapiens, UniProt P00439, R408W), entry O=C(CCc1ncco1)N1CCc2[nH]cnc2[C@H]1c1nc2cccc(F)c2o1 . Fill in?
500 to 1000 nM

Item Cn1cc(-c2nnc(C(=O)N3CCc4[nH]cnc4[C@H]3c3nc4c(F)cccc4o3)o2)cn1 with human PAH with the R408W mutation (A375 R408W cells) (Homo sapiens, UniProt P00439, R408W) - AC50?
500 to 1000 nM

For human PAH with the R408W mutation (A375 R408W cells) (Homo sapiens, UniProt P00439, R408W), provide AC50 of Cc1cc(F)c2oc([C@H]3c4nc[nH]c4CCN3C(=O)c3oc(C(C)(C)O)nc3C(F)F)nc2c1 please.
≤ 500 nM

Test system human PAH with the R408W mutation (A375 R408W cells) (Homo sapiens, UniProt P00439, R408W); read-out AC50; what value for COc1ccc(-c2nc(C(F)F)c(C(=O)N3CCc4[nH]cnc4[C@@H]3c3nc4cccc(F)c4o3)o2)nc1 ?
≤ 500 nM

Would you mind listing AC50 for each of the following compounds?
1. O=C(c1nnc(-c2ccc(C(F)(F)F)cc2)o1)N1CCc2[nH]cnc2[C@@H]1c1nc2cc(F)ccc2o1
2. CC(C)(O)c1nc(C(F)F)c(C(=O)N2CCc3[nH]cnc3[C@H]2c2nc3cccc(F)c3o2)o1
3. O=C(c1oc(-c2cncnc2)nc1C(F)F)N1CCc2[nH]cnc2[C@H]1c1nc2cccc(F)c2o1

1: 1000 to 5000 nM; 2: ≤ 500 nM; 3: ≤ 500 nM

---

- tested_on: human PAH with the R408W mutation (A375 R408W cells) (Homo sapiens, UniProt P00439, R408W)
- Construct: expressed in transfected cells
- protocol_notes: Cell Based Phenylalanine Flux Assay
- measurement_parameters: A375 R408W cells; 24 hrs with compound, then 20 μM sepiapterin and 800 μM 13C9,15N-Phenylalanine for 4 hours; 13C-Tyrosine by LC-MS; average where tested multiple times
value_kind: AC50

Known results for compounds:
Entry COc1ccc2c(C(=O)N3CCc4[nH]cnc4[C@H]3c3nc4cccc(F)c4o3)cnn2c1 : reported AC50 = ?
≤ 500 nM

Any idea what AC50 was measured for O=C(c1ocnc1C(F)F)N1CCc2[nH]cnc2[C@@H]1c1nc2cccc(Cl)c2o1 ?
≤ 500 nM

Which AC50 value is on record for Cn1nccc1-c1nnc(C(=O)N2CCc3[nH]cnc3[C@H]2c2nc3cc(F)ccc3o2)o1 ?
500 to 1000 nM

If you can, please state the reported AC50 value of Cc1nc(-c2ccccn2)oc1C(=O)N1CCc2[nH]cnc2[C@@H]1c1nc2cccc(F)c2o1 .
1000 to 5000 nM

Required: AC50, one value per compound below.
1. O=C(c1oc(-c2ccncn2)nc1C(F)F)N1CCc2[nH]cnc2[C@H]1c1nc2cccc(F)c2o1
2. Cc1cnn(C)c1-c1nnc(C(=O)N2CCc3[nH]cnc3[C@@H]2c2nc3cc(F)ccc3o2)o1
3. O=C(c1cnn2cc(N3CCC4(CC3)CC4)ccc12)N1CCc2[nH]cnc2[C@H]1c1nc2cccc(F)c2o1
4. CC(C)(O)c1nc(C(F)(F)F)c(C(=O)N2CCc3[nH]cnc3[C@@H]2c2nc3cc(F)ccc3o2)o1
5. Cc1c(F)ccc2oc([C@H]3c4nc[nH]c4CCN3C(=O)c3oc(C(C)(C)O)nc3C(F)F)nc12
6. CC(C)(F)c1ncc(C(=O)N2CCc3[nH]cnc3[C@@H]2c2nc3cc(F)ccc3o2)o1
7. O=C(c1ocnc1C(F)F)N1CCc2[nH]cnc2[C@@H]1c1nc2c(F)c(F)ccc2o1
8. Cn1nc(C(F)F)cc1C(=O)N1CCc2[nH]cnc2[C@H]1c1nc2ccccc2o1

1: ≤ 500 nM; 2: 1000 to 5000 nM; 3: 500 to 1000 nM; 4: ≤ 500 nM; 5: 500 to 1000 nM; 6: 1000 to 5000 nM; 7: 500 to 1000 nM; 8: ≤ 500 nM
